molecular target: F508delCFTR (Homo sapiens, UniProt P13569, DEL508-508); construct: expressed in transfected cells; host or cells: CFBE41o- human lung-derived epithelial cells (CFBE4lo-F508delCFTR-HRP), doxycycline-inducible; experiment: Cell Surface Expression-Horse Radish Peroxidase (CSE-HRP) Assay; type: cell-based; conditions: with co-corrector (2 μM of 3-[(2R,4R)-4-({[1-(2,2-difluoro-1,3-benzodioxol-5-yl)cyclopropyl]carbonyl}amino)-7-methoxy-3,4-dihydro-2H-chromen-2-yl]benzoic acid); maximum at any tested concentration, normalized to on-plate positive control;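 note: co-corrector and positive control are both the same reference corrector at 2 µM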
Sequence (P13569 with tags, fused parts or gaps DEL508-508): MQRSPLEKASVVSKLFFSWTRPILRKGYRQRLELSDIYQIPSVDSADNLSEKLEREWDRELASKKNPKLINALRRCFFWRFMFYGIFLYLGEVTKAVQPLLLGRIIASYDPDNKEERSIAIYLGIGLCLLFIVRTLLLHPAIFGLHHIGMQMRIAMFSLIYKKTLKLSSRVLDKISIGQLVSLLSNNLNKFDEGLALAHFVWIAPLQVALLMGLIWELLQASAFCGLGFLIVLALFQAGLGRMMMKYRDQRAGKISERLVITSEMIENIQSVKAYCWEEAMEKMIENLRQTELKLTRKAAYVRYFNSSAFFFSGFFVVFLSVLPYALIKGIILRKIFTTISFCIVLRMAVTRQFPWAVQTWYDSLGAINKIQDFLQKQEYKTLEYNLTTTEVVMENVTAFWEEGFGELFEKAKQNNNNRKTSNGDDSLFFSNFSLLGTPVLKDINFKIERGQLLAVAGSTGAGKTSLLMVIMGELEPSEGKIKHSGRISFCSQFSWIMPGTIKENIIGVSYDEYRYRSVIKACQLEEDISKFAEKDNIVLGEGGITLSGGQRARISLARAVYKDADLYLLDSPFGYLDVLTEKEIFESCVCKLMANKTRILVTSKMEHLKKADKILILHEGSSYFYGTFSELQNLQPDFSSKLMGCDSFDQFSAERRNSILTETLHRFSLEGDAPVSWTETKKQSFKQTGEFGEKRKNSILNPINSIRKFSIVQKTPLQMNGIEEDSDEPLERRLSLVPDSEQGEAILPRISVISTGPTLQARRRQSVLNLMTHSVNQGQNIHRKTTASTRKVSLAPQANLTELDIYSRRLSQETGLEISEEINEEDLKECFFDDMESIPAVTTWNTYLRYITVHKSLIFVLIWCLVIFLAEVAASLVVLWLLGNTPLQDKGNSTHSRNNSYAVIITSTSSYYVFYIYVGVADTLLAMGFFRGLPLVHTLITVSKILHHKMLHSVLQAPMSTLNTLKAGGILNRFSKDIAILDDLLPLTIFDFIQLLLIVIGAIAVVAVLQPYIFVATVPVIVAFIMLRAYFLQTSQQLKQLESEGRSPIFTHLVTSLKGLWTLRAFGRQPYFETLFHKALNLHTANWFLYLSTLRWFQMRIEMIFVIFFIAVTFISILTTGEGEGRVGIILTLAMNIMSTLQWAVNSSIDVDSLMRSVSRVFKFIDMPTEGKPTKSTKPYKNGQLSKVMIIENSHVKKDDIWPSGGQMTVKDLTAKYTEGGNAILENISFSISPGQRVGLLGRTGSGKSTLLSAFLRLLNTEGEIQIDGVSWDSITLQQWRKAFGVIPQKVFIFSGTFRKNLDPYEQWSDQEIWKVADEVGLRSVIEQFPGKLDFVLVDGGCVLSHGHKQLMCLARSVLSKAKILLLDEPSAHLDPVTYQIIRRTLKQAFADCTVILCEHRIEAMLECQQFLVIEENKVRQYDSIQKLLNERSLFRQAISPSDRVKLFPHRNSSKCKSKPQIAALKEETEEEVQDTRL
Parameter measured: Maximum % activity (with co-corrector)

Answered examples (10):
Compound	Maximum % activity (with co-corrector)
CC(C)(C)[C@@H]1[C@@H](Nc2ccc(C(F)(F)F)cn2)[C@@H](c2ccccc2)N(C(=O)C2CCCCC2)[C@H]1C(=O)O (racemic)	++ (≥150 and <350)
COc1ccc(C(C)(C)C)cc1CN[C@H]1[C@H](C(C)(C)C)[C@@H](C(=O)O)N(C(=O)C2CCCCC2)[C@H]1c1ccccc1C	+++ (≥350)
COc1cc(C(F)(F)F)cc(N(C)[C@@H]2[C@@H](C(C)(C)C)[C@H](C(=O)O)N(C(=O)C3CCCCC3)[C@@H]2c2ccccc2)n1 (racemic)	++ (≥150 and <350)
COc1ncc(C(F)(F)F)cc1N[C@H]1[C@H](C(C)(C)C)[C@@H](C(=O)O)N(C(=O)C2C3CCCC32)[C@H]1c1cccnc1N(C)C (some centres unmarked)	++ (≥150 and <350)
COc1cccc([C@H]2[C@@H](NCc3cc(C(F)(F)F)ccc3OC)[C@H](C(C)(C)C)[C@@H](C(=O)O)N2C(=O)C2(C)CCCOC2)n1 (relative stereo)	++ (≥150 and <350)
COc1ccc(C(C)(C)C)cc1CN[C@H]1[C@H](C(C)(C)C)[C@@H](C(=O)O)N(C(=O)c2cnn3c2CCCC3)[C@H]1c1ccccc1	+++ (≥350)
COc1ccc(C(C)(C)C)cc1CN[C@H]1[C@H](C(C)(C)C)[C@@H](C(=O)O)N(C(=O)C2CCCC2)[C@H]1c1ccccc1	+++ (≥350)
COc1ccc(C(C)(C)C)cc1CN[C@H]1[C@H](C(C)(C)C)[C@@H](C(=O)O)N(C(=O)[C@@H](OC)c2ccc(F)c(F)c2)[C@H]1c1ccccc1	+++ (≥350)
COc1ccc(C(C)(C)C)cc1CN[C@@H]1[C@@H](C(C)(C)C)[C@@H](C(=O)O)N(C(=O)C2CCCCC2)[C@H]1c1ccccc1	++ (≥150 and <350)
COc1ncc(C(F)(F)F)cc1CN[C@H]1[C@H](C(C)(C)C)[C@@H](C(=O)O)N(C(=O)C2Cc3cccc(C)c3O2)[C@H]1c1ccccc1 (some centres unmarked)	++ (≥150 and <350)

// query Report Maximum % activity (with co-corrector), nothing else, for this compound: "CCn1nc(C)c(C(=O)N2[C@H](C(=O)O)[C@@H](C(C)(C)C)[C@H](NCc3cc(C(C)(C)C)ccc3OC)[C@@H]2c2ccccc2)c1C"
// result +++ (≥350)

// query Return value of Maximum % activity (with co-corrector) for input COc1ccc(C(C)(C)C)cc1CN[C@H]1[C@H](C(C)(C)C)[C@@H](C(=O)O)N(C(=O)[C@@H]2C[C@H]2c2ccccc2)[C@H]1c1ccccc1 (relative stereo) , no commentary.
// result +++ (≥350)

// query Quickly give me recorded Maximum % activity (with co-corrector) for "COc1ccc(S(F)(F)(F)(F)F)cc1CN[C@H]1[C@H](C(C)(C)C)[C@@H](C(=O)O)N(C(=O)OC(C)C)[C@H]1c1ccccc1"
// result +++ (≥350)

// query Specify measured Maximum % activity (with co-corrector) for "COc1ccc(C2(C)CCC2)cc1CN[C@H]1[C@H](C(C)(C)C)[C@@H](C(=O)O)N(C(=O)[C@@H]2CCCCO2)[C@H]1c1ccccc1F" .
// result +++ (≥350)

// query # return recorded Maximum % activity (with co-corrector) for input CC(C)(C)[C@@H]1[C@@H](NCc2cc(C(F)(F)F)cnc2OCCO)[C@@H](c2ccccc2)N(C(=O)C2CCCCC2)[C@H]1C(=O)O (racemic)
// result ++ (≥150 and <350)

// query Hello, please tell me recorded Maximum % activity (with co-corrector) for this one: "COc1ccc(C23CC(C2)C3)cc1CN[C@H]1[C@H](C(C)(C)C)[C@@H](C(=O)O)N(C(=O)[C@H]2CCCC(F)(F)C2)[C@H]1c1ccccc1"
// result +++ (≥350)

// query Report Maximum % activity (with co-corrector) for COc1cccnc1CN[C@@H]1[C@@H](C(C)(C)C)[C@H](C(=O)O)N(C(=O)C2CCCCC2)[C@@H]1c1ccccc1 (racemic)
// result ++ (≥150 and <350)

// query Return the recorded Maximum % activity (with co-corrector) value; entry: "COc1cnc(C2CCCCC2)cc1CN[C@H]1[C@H](C(C)(C)C)[C@@H](C(=O)O)N(C(=O)C2CCCCC2)[C@H]1c1ccccc1"
// result +++ (≥350)

// query Report Maximum % activity (with co-corrector), nothing else, for this compound: COc1ccc(C(F)(F)F)cc1CN[C@H]1[C@H](C(C)(C)C)[C@@H](C(=O)O)N(C(=O)C(Oc2ccc(Cl)cc2)C(C)C)[C@H]1c1ccccc1 (some centres unmarked)
// result +++ (≥350)

// query Given the compound COc1ccc(C(C)(C)C)cc1CN[C@H]1[C@H](C(C)(C)C)[C@@H](C(=O)O)N(C(=O)C2CCCN(C)C2=O)[C@H]1c1ccccc1 (single isomer, unassigned) , write its reported Maximum % activity (with co-corrector).
// result ++ (≥150 and <350)

// query Return reported Maximum % activity (with co-corrector). Input compound: COc1nc(C(C)(C)C)ccc1CN[C@H]1[C@H](C(C)(C)C)[C@@H](C(=O)O)N(C(=O)[C@@H]2OC[C@@H]3CCC[C@@H]32)[C@H]1c1ccccc1 (relative stereo)
// result +++ (≥350)

// query State its Maximum % activity (with co-corrector): "COc1ccc(C(C)(C)C)cc1CN[C@H]1[C@H](C(C)(C)C)[C@@H](C(=O)O)N(C(=O)c2c(C)nn3c2CCCC3)[C@H]1c1ccccc1"
// result +++ (≥350)
